experiment: Tissue distribution of SGC003F in rats with or without tariquidar; format: in vivo; settings: male, SD, rat, brain, po, 1 mg/kg, SGC003F p.o. 1 mg/kg, with tariquidar p.o. 15 mg/kg, read-out: AUC(0–24h), Brain
endpoint-label: AUC(0-t) (ng·h/mL)
Record the value in ng·h/mL, omitting the unit from your answer.

Q) Dear colleague, I am looking for the recorded AUC(0-t) of the following molecule: COC(=O)Nc1c(N)nc(-c2nn(Cc3sccc3F)c3ncc(F)cc23)nc1N [SGC003F]
A) 41.5

====

assay: Plasma pharmacokinetics of SGC003F in rats with or without tariquidar; assay type: in vivo, rat; details: male, Sprague-Dawley, rat, plasma, po, 1 mg/kg, SGC003F p.o. 1 mg/kg, with tariquidar i.v. 7.5 mg/kg
endpoint-label: half-life (h)
Record the value in h, omitting the unit from your answer.

Q) Dear colleague, I am looking for the recorded half-life of the following molecule: COC(=O)Nc1c(N)nc(-c2nn(Cc3sccc3F)c3ncc(F)cc23)nc1N [SGC003F]
A) 4.31

====

assay: Plasma pharmacokinetics of SGC003F in rats with or without tariquidar; format: in vivo, rat; conditions: male, Sprague-Dawley, rat, plasma, iv, 1 mg/kg, rat plasma, SGC003F i.v. 1 mg/kg, single
endpoint-label: AUC(0-t)
Reply with a number, then the unit it belongs to.

Q) Dear colleague, I am looking for the recorded AUC(0-t) of the following compound: COC(=O)Nc1c(N)nc(-c2nn(Cc3sccc3F)c3ncc(F)cc23)nc1N [SGC003F]
A) 7620 ng·h/mL

====

test: Plasma pharmacokinetics of SGC003F in rats with or without tariquidar; format: in vivo, rat; conditions: male, Sprague-Dawley, rat, plasma, po, 1 mg/kg, rat plasma, SGC003F p.o. 1 mg/kg, with tariquidar i.v. 7.5 mg/kg
endpoint-label: AUC(0-t) (ng·h/mL)
Record the value in ng·h/mL, omitting the unit from your answer.

Q) Dear colleague, I am looking for the recorded AUC(0-t) of the following compound: COC(=O)Nc1c(N)nc(-c2nn(Cc3sccc3F)c3ncc(F)cc23)nc1N [SGC003F]
A) 5690

====

assay: Plasma pharmacokinetics of SGC003F in rats with or without tariquidar; type: in vivo, rat; conditions: male, Sprague-Dawley, rat, plasma, po, 1 mg/kg, rat, SGC003F p.o. 1 mg/kg, single; read-out: F (bioavailability)
endpoint-label: bioavailability (%)
Record the value in %, omitting the unit from your answer.

Q) Dear colleague, I am looking for the recorded bioavailability of the following molecule: COC(=O)Nc1c(N)nc(-c2nn(Cc3sccc3F)c3ncc(F)cc23)nc1N [SGC003F]
A) 46.4

====

assay: Plasma pharmacokinetics of SGC003F in rats with or without tariquidar; format: in vivo, rat; conditions: male, Sprague-Dawley, rat, plasma, po, 1 mg/kg, SGC003F p.o. 1 mg/kg, with tariquidar p.o. 15 mg/kg
endpoint-label: half-life (h)
Record the value in h, omitting the unit from your answer.

Q) Dear colleague, I am looking for the recorded half-life of the following compound: COC(=O)Nc1c(N)nc(-c2nn(Cc3sccc3F)c3ncc(F)cc23)nc1N [SGC003F]
A) 4.35

====

test: Tissue distribution of SGC003F in rats with or without tariquidar; type: in vivo; settings: male, Sprague-Dawley, rat, brain, po, 1 mg/kg, SGC003F p.o. 1 mg/kg, single, read-out: KP2 (tissue/plasma AUC), Brain
endpoint-label: Kp
Returns: the value as a bare number; no unit string appended.

Q) Dear colleague, I am looking for the recorded Kp of the following compound: COC(=O)Nc1c(N)nc(-c2nn(Cc3sccc3F)c3ncc(F)cc23)nc1N [SGC003F]
A) 0.002

Source listed as paper PMC11435065.
